// data source = PubChem BioAssay (EPA / NIEHS)

- Read-out: Forkhead box O1 (FOXO1), FOXO1 (gene 2308)
- PROTOCOL SUMMARY: LTEA_HepaRG_FOXO1: Life Technologies and Expression Analysis (LTEA) Assay for Forkhead box O1 (FOXO1) using HepaRG (AID 2283456)
- PARTICULARS: mRNA level, 48 h; actives raise or lower the signal
Active and inactive are the calls of the source. The calls were made as follows: active = hit-call score of the fitted dose curve at least 0.9, where 1 is the maximum; inactive = score below 0.9.
In this exercise, the only acceptable responses are active, inactive

Reference set (3 entries):
COMPOUND | GROUP LABEL
CC(C)c1ccc(C(=O)N=C(N)N)cc1S(C)(=O)=O | active
CC1(C)CC(N=C=O)CC(C)(CN=C=O)C1 (centres undefined) | inactive
Nc1ccc(S(=O)(=O)c2ccc(N)cc2)cc1 | inactive

Field: outcome | Entry: CCCCOC(=O)CCCCCCCCC(=O)OCCCC
inactive

And Cc1cccc(C)c1O ?
inactive

And OC[C@@H](O)[C@@H](O)[C@H](O)[C@H](O)CO ?
inactive

And CCCCCCCCCCCCCO ?
inactive

And O=C(O)Cc1ccccc1Nc1c(Cl)cccc1Cl ?
inactive

And Nc1ccc2c(c1)C(=O)c1ccccc1C2=O ?
inactive

And CCCCCCCCCCCC(=O)OC ?
inactive

And COc1cc(S(=O)(=O)O)c(C)cc1N=Nc1c(O)ccc2cc(S(=O)(=O)O)ccc12 ?
inactive

And CCCc1cc(=O)[nH]c(=S)[nH]1 ?
inactive

And CCCCCCC(=O)OCC ?
inactive

And CC(=O)OC/C=C(\C)CCC=C(C)C ?
inactive

---

- PROTOCOL SUMMARY: APR_HepG2_MitoticArrest_24hr: Apredica 24-hour HepG2 Assay for Mitotic Arrest (AID 2282910)
- PARTICULARS: high-content imaging, actives raise or lower the signal
Activity calls are given as the source filed them. How the source made its calls: active means hit-call score of the fitted dose curve at least 0.9, where 1 is the maximum; inactive means score below 0.9.
In this exercise, the only acceptable responses are label 1 = active, label 0 = inactive

Field: outcome | Entry: CC(C)c1ccc(C(=O)N=C(N)N)cc1S(C)(=O)=O
label 0

And CCCCCCCCCCCCCCCC ?
label 0

And CC(=O)C(C)=CC1C(C)=CCCC1(C)C (stereo not drawn) ?
label 0

And Cc1ccccc1Cl ?
label 0

And CCCCOC(=O)CCCCCCCCC(=O)OCCCC ?
label 0

And CC(C)(C)c1cc(O)c(C(C)(C)C)cc1O ?
label 1

And C1CCC(SSC2CCCCC2)CC1 ?
label 0

And Oc1ccc2c(c1)OC[C@@H](N1CCC(O)(c3ccc(F)cc3)CC1)[C@H]2O ?
label 0

And Cc1ccc(C)c(C)c1 ?
label 0

---

- Read-out: Tissue plasminogen activator (tPA), PLAT (gene 5327)
- PROTOCOL SUMMARY: BSK_BE3C_tPA: BioMAP Diversity Plus: BE3C Assay for Tissue plasminogen activator (tPA) Biomarker Activity (AID 2283041);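 also: tPA level quantified by ELISA one day after compound addition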
- PARTICULARS: primary human bronchial epithelial cells; actives raise or lower the signal
Calls of active or inactive are those of the source. How the source made its calls: active means hit-call score of the fitted dose curve at least 0.9, where 1 is the maximum; inactive means score below 0.9.
In this exercise, the only acceptable responses are y = active, n = inactive

Reference set (5 entries):
COMPOUND | GROUP LABEL
c1cc(-c2ccncc2)ccn1 | n
O=[N+]([O-])C(CO)(CO)CO | n
CCCCCCCCCCO | n
CCOC(=O)CCC(=O)OCC | n
CCCCCCC(=O)OCC | n

Field: outcome | Entry: Clc1cc(Cl)c(Cl)cc1Cl
n

And Nc1ccc(S(=O)(=O)c2ccc(N)cc2)cc1 ?
n

And O=c1[nH]cc(F)c(=O)[nH]1 ?
n

And C[C@]12C=CC(=O)C=C1CC[C@@H]1[C@@H]2C(=O)C[C@@]2(C)[C@H]1CC[C@]2(O)C(=O)CO ?
n
